Assay: HLM stability (Low Activity, Alternative Method)
Format: in vitro ADME
Conditions: both sexes, human, liver microsomes, pH 7.4, Condition 1 column, values marked *: Low Activity, 0.50 mg protein/mL
Experimental: HLM Stability (Low Activity, Alternative Method). Pooled HLM from adult male and female donors (Corning 452117) were used. Microsomal incubations were carried out in multi-well plates. […] Six time points over 60 minutes were analyzed, with 60 μL aliquots of the reaction mixture being drawn at each time point. […] Supernatant samples (80 μL) were diluted with water (240 μL) and analyzed for parent compound remaining using a fit-for-purpose liquid chromatography-tandem mass spectrometry (LC-MS/MS) method. […]
Below, each entry is listed with its recorded half-life at 1 μM.
reported.property: half-life at 1 μM (h)

[[record]]
compound = "Cc1ccccc1[C@]1(N)CCCCC1=O [Compound 114R, (R)-2-amino-2-(o-tolyl)cyclohexan-1-one]"
endpoint_unit = "h"
inequality_symbol = ">"
reported_measurement = 2.42

[[record]]
compound = "NC1(c2ccc(F)cc2)CCCCC1=O (racemic) [Compound 117rac]"
endpoint_unit = "h"
inequality_symbol = ">"
reported_measurement = 2.42

[[record]]
compound = "O=C1CCCC[C@@]1(c1ccccc1)N1CCCC1 [Compound 27S]"
endpoint_unit = "h"
inequality_symbol = ">"
reported_measurement = 2.42

[[record]]
compound = "CC(C)N[C@]1(c2ccccc2)CCCCC1=O [Compound 28S]"
endpoint_unit = "h"
inequality_symbol = "="
reported_measurement = 1.28

[[record]]
compound = "CNC1(c2cccc(C)c2)CCCCC1=O (racemic) [Compound 23rac]"
endpoint_unit = "h"
inequality_symbol = "="
reported_measurement = 2.22

